The measured values listed here are drawn from PubChem BioAssay (EPA / NIEHS).

Read-out: Interleukin-1 alpha (IL1a), IL1A (gene 3552)
Test: BSK_KF3CT_IL1a: BioMAP Diversity Plus: KF3CT Assay for Interleukin-1 alpha (IL1a) Biomarker Activity (AID 2283070)
Settings: primary human keratinocytes with fibroblasts; actives raise or lower the signal
Active and inactive are the calls of the source. Rule for the calls: active = hit-call score of the fitted dose curve at least 0.9, where 1 is the maximum; inactive = score below 0.9.
measurement-name: outcome

Please give measured outcome of the following entry: COC(F)(C(F)F)C(F)(F)F (stereo not drawn)
inactive

Please give measured outcome of the following entry: O=C(O)C(F)(F)OC(F)(F)C(F)(F)OC(F)(F)C(F)(F)OC(F)(F)F
inactive

Please give measured outcome of the following entry: CC1=CC2C3C=CC(C3)C2C1C (stereo not drawn)
inactive
